- tgt: Nanoluciferase-BRD9 fusion protein (3×FLAG-NLuc-BRD9) in SYO-1 cells (Homo sapiens)
- Construct: expressed in transfected cells; host or cells: SYO-1
- Sequence (Q9H8M2 1-597): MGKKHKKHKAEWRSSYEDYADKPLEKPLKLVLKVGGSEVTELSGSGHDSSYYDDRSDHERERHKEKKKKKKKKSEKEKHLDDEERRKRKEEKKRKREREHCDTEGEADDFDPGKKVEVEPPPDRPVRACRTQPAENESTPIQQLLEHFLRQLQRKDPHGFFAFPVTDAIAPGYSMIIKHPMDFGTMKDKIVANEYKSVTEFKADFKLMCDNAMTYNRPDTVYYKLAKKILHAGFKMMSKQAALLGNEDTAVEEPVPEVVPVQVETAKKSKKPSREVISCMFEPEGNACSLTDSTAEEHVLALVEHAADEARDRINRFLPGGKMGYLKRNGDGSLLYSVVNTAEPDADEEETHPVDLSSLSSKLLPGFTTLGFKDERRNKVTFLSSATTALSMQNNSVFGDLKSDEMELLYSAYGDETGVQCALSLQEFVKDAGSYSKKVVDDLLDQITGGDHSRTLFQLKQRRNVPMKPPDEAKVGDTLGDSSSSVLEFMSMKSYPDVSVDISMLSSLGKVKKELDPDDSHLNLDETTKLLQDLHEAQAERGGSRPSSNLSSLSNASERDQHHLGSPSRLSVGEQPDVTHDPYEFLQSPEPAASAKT
- experiment-notes: SYO1 BRD9 NanoLuc Degradation Assay
- Format: cell-based
- conditions-used: Table 6B; SYO-1 cells expressing 3×FLAG-NLuc-BRD9, 6 hours incubation, 1 μM top dose; read-out: SYO1 BRD9-NanoLuc degradation IC50
experimental-endpoint: DC50

Some compounds with recorded DC50:
{"columns": ["compound", "test-result"],
 "data": [
  ["COc1cc(-c2cn(C)c(=O)c3cnc(N(C)C)cc23)cc(OC)c1CN1CCC(C(=O)N2CCC3(CC2)CC(Oc2cc4c(cc2F)C(=O)N(C2CCC(=O)NC2=O)C4=O)C3)CC1 (stereo not drawn)", "< 10 nM"],
  ["COc1cc(-c2cn(C)c(=O)c3cnc(N(C)C)cc23)cc(OC)c1CN1CCN(c2ccn3c(=O)n(C4CCC(=O)NC4=O)nc3c2)CC1 (stereo not drawn)", "< 10 nM"]
]}

Query: Give reported DC50 value for COc1cc(-c2cn(C)c(=O)c3cnc(N(C)C)cc23)c2c(c1)N(CCCCCN1CCC3(CC1)CC(Oc1ccc4c(c1)C(=O)N(C1CCC(=O)NC1=O)C4=O)C3)CC2 (stereo not drawn)
Result: < 10 nM

* * *

- tgt: Nanoluciferase-BRD9 fusion protein (3×FLAG-NLuc-BRD9) in SYO-1 cells (Homo sapiens)
- Construct: expressed in transfected cells; host or cells: SYO-1
- experiment-notes: SYO1 BRD9 NanoLuc Degradation Assay
- Format: cell-based
- conditions-used: Table 6C; SYO-1 cells expressing 3×FLAG-NLuc-BRD9, 6 hours incubation, 1 μM top dose; read-out: SYO1 BRD9-NanoLuc degradation IC50
Entries and their measured DC50 follow.

Some molecules with recorded DC50:
{"columns": ["molecule", "DC50"],
 "data": [
  ["COc1cc(-c2cn(C)c(=O)c3cnc(N4CCC4)cc23)cc(OC)c1CN1CC(CN2CCC3(CC2)CN(c2ccc4c(c2)C(=O)N(C2CCC(=O)NC2=O)C4)C3)C1 (centres unmarked) [Compound D311]", "< 10 nM"],
  ["[2H]C([2H])([2H])N(c1cc2c(-c3cc(OC)c(CN4CCN(CCC5CCN(c6ccc7c(c6)C(=O)N(C6CCC(=O)NC6=O)C7)CC5)CC4)c(OC)c3)cn(C)c(=O)c2cn1)C([2H])([2H])[2H] (centres unmarked) [Compound D197]", "< 10 nM"],
  ["COc1cc(-c2cn(C)c(=O)c3cnc(C4CC4)cc23)cc(OC)c1CN1CCC2(CC1)CN(c1ccc3c(c1)C(=O)N(C1CCC(=O)NC1=O)C3=O)C2 (centres unmarked) [Compound D219]", "< 10 nM"],
  ["COc1cc(-c2cn(C)c(=O)c3cnc(N4CC[C@H]4C)cc23)cc(OC)c1CN1CCC(CN2CCC3(CC2)CN(c2ccc4c(c2)C(=O)N(C2CCC(=O)NC2=O)C4)C3)CC1 (some centres unmarked) [Compound D208]", "< 10 nM"],
  ["COc1cc(-c2cn(C)c(=O)c3cnc(N(C)C)cc23)cc(OC)c1-c1ccc2c(c1)C(=O)N(C1CCC(=O)NC1=O)C2 (centres unmarked) [Compound D274]", "< 10 nM"]
]}

Query: Give reported DC50 value for COc1cc2c(-c3cc(OC)c(CN4CCN(c5cccc(OC6CCC(=O)NC6=O)c5)CC4)c(OC)c3)cn(C)c(=O)c2cn1 (centres unmarked) [Compound D282]
Result: 10 to 100 nM

Query: Give reported DC50 value for COc1cc(-c2cn(C)c(=O)c3cnc(C4CC4)cc23)cc(OC)c1CN1CC(C#Cc2ccc3c(c2)CN(C2CCC(=O)NC2=O)C3=O)C1 (centres unmarked) [Compound D271]
Result: < 10 nM

Query: Give reported DC50 value for COc1cc2c(-c3cc(OC)c(CN4CCN(c5ccc6c(c5)C(=O)N(C5CCC(=O)NC5=O)C6)CC4(C)C)c(OC)c3)cn(C)c(=O)c2cn1 (centres unmarked) [Compound D260]
Result: < 10 nM

Query: Give reported DC50 value for COc1cc(-c2cn(C)c(=O)c3cnc(N(C)C)cc23)cc(OC)c1CN(C)c1ccc2c(c1)CN(C1CCC(=O)NC1=O)C2=O (centres unmarked) [Compound D277]
Result: < 10 nM

Query: Give reported DC50 value for COCC1CN(CCC2CCN(c3ccc4c(c3)C(=O)N(C3CCC(=O)NC3=O)C4=O)CC2)CCN1Cc1c(OC)cc(-c2cn(C)c(=O)c3cnc(N4CCC4)cc23)cc1OC (centres unmarked) [Compound D215]
Result: < 10 nM

Query: Give reported DC50 value for COc1cc(-c2cn(C)c(=O)c3cnc(N4CC5(CC5)C4)cc23)cc(OC)c1CN1CCC(CN2CCC3(CC2)CN(c2ccc4c(c2)C(=O)N(C2CCC(=O)NC2=O)C4)C3)CC1 (centres unmarked) [Compound D205]
Result: 10 to 100 nM
